The origin of these recorded values is patent US20220363673A1.

targetDesc: human BCKDK (Homo sapiens)
Construct: human BCKDK (residues 31-412 of the protein pre-processing); 6xHis (N, cleaved yes); MBP (N, cleaved yes); TEV protease site (ENLYFQG) (N, cleaved yes)
testMethodNotes: In Vitro FRET (TR-FRET) BCKDK activity assay, phosphorylation of BCKDHE1α-E2 fusion substrate
studyConditions: geometric mean, two significant figures; 15 μM ATP
Provide the reported IC50 of each item.
Please give a number only; it is taken to be in µM.

Task item: Recorded IC50 for Clc1ccsc1-c1nnn[nH]1 [Example 7, 5-(3-chlorothiophen-2-yl)-1H-tetrazole] with human BCKDK (Homo sapiens), please?
Reply: 11

Task item: Request: IC50, test system human BCKDK (Homo sapiens), entry Cc1c(-c2nnn[nH]2)sc(Cl)c1F [Example 10]
Reply: 0.81

Task item: Could you share what IC50 was measured for Cc1ccsc1-c1nnn[nH]1 [Example 36, 5-(3-methylthiophen-2-yl)-1H-tetrazole] , tested on human BCKDK (Homo sapiens)?
Reply: 6

Task item: Give recorded IC50 with human BCKDK (Homo sapiens) for the following compound: Fc1ccsc1-c1nnn[nH]1 [Example 28, 5-(3-fluorothiophen-2-yl)-1H-tetrazole]
Reply: 16

----------
targetDesc: human BCKDK (Homo sapiens, UniProt O14874)
Construct: human BCKDK (residues 31-412 of the protein pre-processing); 6xHis (N, cleaved yes); MBP (N, cleaved yes); TEV protease site (ENLYFQG) (N, cleaved yes)
testMethodNotes: In Vitro FRET (TR-FRET) BCKDK activity assay, phosphorylation of BCKDHE1α-E2 fusion substrate
studyConditions: geometric mean, two significant figures; 15 μM ATP
measurementName: IC50 (µM)
Numeric only. Scale: µM

Task item: Reported IC50 for human BCKDK (Homo sapiens, UniProt O14874), given COc1cc(Br)sc1-c1nnn[nH]1 ?
Reply: 4.5

Task item: Lookup: IC50 / human BCKDK (Homo sapiens, UniProt O14874) / Cc1c(-c2nnn[nH]2)sc(Br)c1Br
Reply: 4.5

Task item: Provide value of IC50 for this record tested with human BCKDK (Homo sapiens, UniProt O14874): Fc1cc(Cl)sc1-c1nnn[nH]1
Reply: 2.9

Task item: What value of IC50 on human BCKDK (Homo sapiens, UniProt O14874) does FC(F)c1ccsc1-c1nnn[nH]1 have?
Reply: 2.5

Task item: // map CCc1cc(C)c(-c2nnn[nH]2)s1 to recorded IC50 (system: human BCKDK (Homo sapiens, UniProt O14874))
Reply: 15

Task item: Form entry - test system: human BCKDK (Homo sapiens, UniProt O14874); read-out: IC50; compound: CCc1cc(Cl)sc1-c1nnn[nH]1
Reply: 4

Task item: Hi! What's the reported IC50 for Oc1ccsc1-c1nnn[nH]1 on human BCKDK (Homo sapiens, UniProt O14874)?
Reply: 13

Task item: What measured IC50 is associated with Cc1cc(Br)sc1-c1nnn[nH]1 on human BCKDK (Homo sapiens, UniProt O14874)?
Reply: 3.1

Task item: Please tell me: IC50 of Cc1cc(C(F)F)sc1-c1nnn[nH]1 , system human BCKDK (Homo sapiens, UniProt O14874)?
Reply: 3.6

Task item: What reported IC50 corresponds to Fc1cc(Br)c(-c2nnn[nH]2)s1 on human BCKDK (Homo sapiens, UniProt O14874)?
Reply: 2.7

----------
targetDesc: human BCKDK (Homo sapiens, UniProt O14874)
Construct: human BCKDK (residues 31-412 of the protein pre-processing); 6xHis (N, cleaved yes); MBP (N, cleaved yes); TEV protease site (ENLYFQG) (N, cleaved yes)
testMethodNotes: In Vitro FRET (TR-FRET) BCKDK activity assay, phosphorylation of BCKDHE1α-E2 fusion substrate
studyConditions: geometric mean, two significant figures; 15 μM ATP
Please go through the items and note down their IC50.
Report as a plain number; the unit µM is understood.

Task item: Which value of IC50 has been reported for Clc1cc(C2CC2)c(-c2nnn[nH]2)s1 in the records?
Reply: 10

Task item: IC50 lookup needed for Cc1cc(Cl)sc1-c1nnn[nH]1 , thanks.
Reply: 1.4

Task item: Requested read-out: IC50. Entry: Oc1cc(Br)sc1-c1nnn[nH]1
Reply: 13

Task item: IC50 for Cc1cc(Cl)c(-c2nnn[nH]2)s1 ?
Reply: 2.6

Task item: Field request: IC50 | item: Clc1cc(Br)c(-c2nnn[nH]2)s1
Reply: 4.1

----------
Assign IC50 to each entry below.
targetDesc: human BCKDK (Homo sapiens, UniProt O14874)
Construct: human BCKDK (residues 31-412 of the protein pre-processing); 6xHis (N, cleaved yes); MBP (N, cleaved yes); TEV protease site (ENLYFQG) (N, cleaved yes)
testMethodNotes: In Vitro FRET (TR-FRET) BCKDK activity assay, phosphorylation of BCKDHE1α-E2 fusion substrate
studyConditions: geometric mean, two significant figures; 15 μM ATP
Where a name gives a salt, the structure may show the parent alone.
The figure you give is taken to be in µM; do not add the unit.

Task item: Fill blank: measured IC50 of the molecule CCc1c(Br)csc1-c1nnn[nH]1 [Example 4, ammonium salt] is ____.
Reply: 1.1

Task item: Requested field: IC50. Item: Brc1ccsc1-c1nnn[nH]1 [Example 35, 5-(3-bromothiophen-2-yl)-1H-tetrazole]
Reply: 1.4

Task item: Item under review: Brc1csc(-c2nnn[nH]2)c1Br [Example 17] . Reported IC50?
Reply: 6.1

Task item: What does the record list as IC50 for Cc1cc(C(F)(F)F)sc1-c1nnn[nH]1 [Example 20] ?
Reply: 3.7

----------
Provide the recorded pIC50 for the entries that follow.
targetDesc: human BCKDK (Homo sapiens)
Construct: human BCKDK (residues 31-412 of the protein pre-processing); 6xHis (N, cleaved yes); MBP (N, cleaved yes); TEV protease site (ENLYFQG) (N, cleaved yes)
testMethodNotes: In Vitro FRET (TR-FRET) BCKDK activity assay, phosphorylation of BCKDHE1α-E2 fusion substrate
studyConditions: geometric mean, two significant figures; 15 μM ATP
Structures can show the parent of a compound that is named as a salt.
# pIC50: negative log10 of molar concentration; output just the value

Task item: // query pIC50 value for entry Fc1cc(Cl)c(-c2nnn[nH]2)s1
Reply: 5.44

Task item: Recorded pIC50 of Clc1cc(Br)sc1-c1nnn[nH]1 , please.
Reply: 5.47

Task item: Return reported pIC50; argument: FC(F)(F)c1cc(Cl)sc1-c1nnn[nH]1
Reply: 5.14

Task item: What value of pIC50 has been reported for the following compound? Cc1c(-c2nnn[nH]2)sc(Cl)c1Cl
Reply: 5.72

Task item: So what does the record say about pIC50 for Cc1c(Br)csc1-c1nnn[nH]1 ?
Reply: 5.72

Task item: Bench note: what pIC50 did FC(F)(F)c1ccsc1-c1nnn[nH]1 show?
Reply: 4.96

Task item: Look at this compound and give its reported pIC50. Clc1cc(Cl)c(-c2nnn[nH]2)s1 [Example 12, ammonium salt]
Reply: 5.70

Task item: Which pIC50 is reported for this compound? CCc1c(Cl)csc1-c1nnn[nH]1 [Example 3, ammonium salt]
Reply: 5.96

Task item: Consider the compound Cc1cc(F)sc1-c1nnn[nH]1 and give its measured pIC50.
Reply: 5.44

Task item: Recorded pIC50 of CCc1ccsc1-c1nnn[nH]1 , please.
Reply: 5.01

Task item: pIC50 lookup needed for FC(F)c1cc(Cl)sc1-c1nnn[nH]1 , thanks.
Reply: 5.96
